# target-of-assay: T1, human GIP receptor (human, UniProt P48546 22-466)
# T1 sequence (looked up): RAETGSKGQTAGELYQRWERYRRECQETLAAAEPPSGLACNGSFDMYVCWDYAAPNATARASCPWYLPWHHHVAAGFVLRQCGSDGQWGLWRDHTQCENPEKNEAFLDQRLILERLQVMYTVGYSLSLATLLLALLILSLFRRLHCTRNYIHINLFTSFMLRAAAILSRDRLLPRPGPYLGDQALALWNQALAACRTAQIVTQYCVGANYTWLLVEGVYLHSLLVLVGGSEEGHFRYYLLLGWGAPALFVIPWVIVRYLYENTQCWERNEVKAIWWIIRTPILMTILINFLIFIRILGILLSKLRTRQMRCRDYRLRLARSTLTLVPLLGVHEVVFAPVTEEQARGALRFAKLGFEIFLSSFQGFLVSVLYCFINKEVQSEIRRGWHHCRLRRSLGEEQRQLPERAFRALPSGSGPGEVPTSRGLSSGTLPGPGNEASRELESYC
# protocol-details: cell-based or functional assay
*1 amine or outer side, *2 acyl side, *3 side chain or, on linkers, in order; H or OH if unused. Where no end group is shown, it is not given here. Side-chain parts run from the residue outwards. [ ]: non-standard residue; d: D form. The star is where a group is joined. Decanoyl(10-(4-HOOC-PhO)) = O=C(O)c1ccc(OCCCCCCCCCC(=O)*)cc1; αMePhe(2-F) = C[C@](N)(Cc1ccccc1F)C(=O)O; γGlu = O=C(O)[C@H](CCC(=O)[*:2])N[*:1]; αMeY = C[C@](N)(Cc1ccc(O)cc1)C(=O)O; αMeL = CC(C)C[C@](C)(N)C(=O)O; Orn = NCCC[C@H](N)C(=O)O; AEEA = NCCOCCOCC(=O)O; Aib = CC(C)(N)C(=O)O
Here the recorded cAMP Emax (1.0% HSA) is given for each entry.
Dear colleague, please return just the value in %, with no unit written.

# example entries with known answers
For YXEGTXTSDXXIXLDXIAQXKFIKXLIEGGPSSGAPPPS (Y-Aib-EGT-αMeF(2F)-TSD-4Pal-Aib-I-αMeL-LD-Orn-IAQ-Aib-K((2-[2-(2-Amino-ethoxy)-ethoxy]-acetyl)2-(γ-Glu)-CO-(CH2)12-CO2H)FIK((2-[2-(2-Amino-ethoxy)-ethoxy]-acetyl)2-(γ-Glu)-CO-(CH2)12-CO2H)-αMeY-LIEGGPSSGAPPPS-NH2) [Example 218] , what is its reported cAMP Emax (1.0% HSA)?
95.9

For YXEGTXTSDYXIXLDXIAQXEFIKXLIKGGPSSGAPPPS (Y-Aib-EGT-αMeF(2F)-TSDY-Aib-I-αMeL-LD-Orn-IAQ-Aib-EFIK(2-[2-(2-Amino-ethoxy)-ethoxy]-acetyl)3-(γ-Glu)-(10-(4-carboxyphenoxy)decanoyl)-αMeY-LIK((2-[2-(2-Amino-ethoxy)-ethoxy]-acetyl)3-(γ-Glu)-(10-(4-carboxyphenoxy)decanoyl)GGPSSGAPPPS-NH2)) [Example 346] , what is its reported cAMP Emax (1.0% HSA)?
83.9

For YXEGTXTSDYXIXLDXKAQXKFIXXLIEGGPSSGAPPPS (Y-Aib-EGT-αMeF(2F)-TSDY-Aib-I-αMeL-LD-Orn-K((2-[2-(2-Amino-ethoxy)-ethoxy]-acetyl)2-(γ-Glu)-(10-(4-carboxyphenoxy)decanoyl))AQ-Aib-K((2-[2-(2-Amino-ethoxy)-ethoxy]-acetyl)2-(γ-Glu)-(10-(4-carboxyphenoxy)decanoyl))FI-(D-Glu)-αMeY-LIEGGPSSGAPPPS-NH2) [Example 236] , what is its reported cAMP Emax (1.0% HSA)?
80.5

For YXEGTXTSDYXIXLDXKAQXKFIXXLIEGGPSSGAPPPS (Y-Aib-EGT-αMeF(2F)-TSDY-Aib-I-αMeL-LD-Orn-K((2-[2-(2-Amino-ethoxy)-ethoxy]-acetyl)2-(γ-Glu)-CO-(CH2)12-CO2H)AQ-Aib-K((2-[2-(2-Amino-ethoxy)-ethoxy]-acetyl)2-(γ-Glu)-CO-(CH2)12-CO2H)FI-(D-Glu)-αMeY-LIEGGPSSGAPPPS-NH2) [Example 230] , what is its reported cAMP Emax (1.0% HSA)?
85.8

With those in mind, consider the next binder.
For Y[Aib]EGT[αMePhe(2-F)]TSDV[Aib]I[αMeL]LD[Orn]K([AEEA-AEEA-γGlu-Decanoyl(10-(4-HOOC-PhO))])AQ[Aib]EFI[dE][αMeY]LIK([AEEA-AEEA-γGlu-Decanoyl(10-(4-HOOC-PhO))])GGPSSGAPPPS-NH2 [Example 326] , what is its reported cAMP Emax (1.0% HSA)?
88.7
